test: Toxicokinetics of formula (II) and methotrexate after individual and concomitant administration to Beagle dogs; format: in vivo; details: male, Beagle, dog, plasma, po, 10 mg/kg, Group 3, methotrexate 10 mg/kg alone, day 1, male Beagle dogs, mean
MEASURE: Cmax (ng/mL)

# COMPOUND, OBS VALUE
records = [
    ("CN(Cc1cnc2nc(N)nc(N)c2n1)c1ccc(C(=O)N[C@@H](CCC(=O)O)C(=O)O)cc1 [MTX, methotrexate, reference compound]", 1800),
]

====

experiment: Toxicokinetics of formula (II) and methotrexate after individual and concomitant administration to Beagle dogs; type: in vivo; conditions: male, Beagle, dog, plasma, po, 2.5 mg/kg, Group 4 (+10SC, in combination with 10 mg/kg formula (II)), methotrexate 2.5 mg/kg (reduced from 10), week 13, male Beagle dogs, mean
MEASURE: AUC(0-inf) (ng·h/mL)

# COMPOUND, MEASURE, VALUE UNITS, OBS VALUE
rows = [
    ("CN(Cc1cnc2nc(N)nc(N)c2n1)c1ccc(C(=O)N[C@@H](CCC(=O)O)C(=O)O)cc1 [MTX, methotrexate, reference compound]", "AUC(0-inf)", "ng·h/mL", 2000),
]

// data source = patent US20120028985A1
